- Tested on: K562 cells
- measurement notes: Cell death assay, Experiment 2 (IC50, live cells counted by trypan blue)
- Type: cell-based
- conditions: Homo sapiens, 48 h
Kindly state pIC50 for each of the entries shown.
One number for each entry, as −log10 of the molar value.

# annotated cases, reported pIC50 shown
- compound: "Cc1ccc(C(=O)Nc2ccc3c(c2)C(F)(F)CC3N2CCN(C)CC2)cc1C#Cc1cnc2cccnn12 (racemic) [Compound 36]"
  pIC50: 9.06
- compound: "Cc1cn(-c2ccc(NC(=O)c3ccc(C)c(C#Cc4cnc5cccnn45)c3)cc2C(F)(F)F)cn1 [Compound 30]"
  pIC50: 8.44
- compound: "Cc1ccc(C(=O)Nc2ccc(CN3CCN(C)CC3)c(C(F)(F)F)c2)cc1C#Cc1ccc(NC2CC2)nn1 [Compound 12]"
  pIC50: 8.40

Let's switch to this compound now.
q: Return the recorded pIC50 value; entry: Cc1ccc(-c2nc3ccc(CN4CCN(C)CC4)cc3[nH]2)cc1C#Cc1cnc2cccnn12 [Compound 3]
a: 8.52
